Where these numbers come from: PubChem BioAssay (NCI)

# Test system: SK-MEL-5 melanoma
# Assay remarks: NCI-60 one-dose screen, 48 h
# Condition notes: 10 µM
About 83,000 compounds went through this panel and 20% of them were active in at least one assay; those are over-represented in the sample as a whole. The source made the active and inactive calls. Rule for the calls: active = growth percent below 10; inactive = the rest.
Classes to choose from: 1 (yes) = active, 0 (no) = inactive

Consider the following illustrative entries.
[
  {
    "Molecule": "CN(C)CCOc1ccc(-c2nc3sccn3c2-c2ccnc(S(C)(=O)=O)n2)cc1",
    "Assigned label": "0 (no)"
  },
  {
    "Molecule": "CCOc1ccccc1/C=N\\N=C\\c1ccccc1O",
    "Assigned label": "0 (no)"
  },
  {
    "Molecule": "CC1OC2CC(=O)OC2C2=C1C(=O)c1c(O)c3c(c(O)c1C2=O)C1CC(O)C3(O)C(C)O1 (stereo not given)",
    "Assigned label": "1 (yes)"
  },
  {
    "Molecule": "COc1cc2cc(Oc3ccc(NC(=O)Nc4cccc(C(F)(F)F)c4)cc3)c(C)nc2cc1OC",
    "Assigned label": "1 (yes)"
  },
  {
    "Molecule": "Cc1ccc(-c2c3c(N)nc(-c4cccnc4)nc3nc3c2c(C)nn3-c2ccccc2)cc1",
    "Assigned label": "0 (no)"
  },
  {
    "Molecule": "CCOC(=O)C1=CSC2=NC3=C(CCC/C3=C\\c3cc(OC)c(OC)c(OC)c3)C(c3cc(OC)c(OC)c(OC)c3)N12 (stereo not given)",
    "Assigned label": "0 (no)"
  },
  {
    "Molecule": "CCCCC1(O)CCCCC1",
    "Assigned label": "0 (no)"
  },
  {
    "Molecule": "CCN(CC)CCCC(C)Nc1c2ccc(Cl)cc2nc2ccc(OC)cc12 (stereo not given)",
    "Assigned label": "1 (yes)"
  },
  {
    "Molecule": "CCOC(=O)Cn1c(=O)c2sc3ncccc3c2n2nnc(-c3ccccc3)c12",
    "Assigned label": "0 (no)"
  }
]

Now, please, on to the next molecule.
Q: Status in this test for `CSc1nc2c(c(=O)n1C)CN(Cc1ccccc1)C(=O)CN2` ?
Result: 0 (no)

* * *

# Tested on: SK-MEL-2 melanoma
# Assay remarks: NCI-60 one-dose screen, 48 h
# Condition notes: 10 µM
About 83,000 compounds went through this panel and 20% of them were active in at least one assay; those are over-represented in the sample as a whole. Calls of active or inactive are those of the source. How the source made its calls: active means growth percent below 10; inactive means the rest.
Classes to choose from: TRUE for active, FALSE for inactive

Q: Status in this test for `O=C(O)c1cn(C2CC2)c2cc(N3CCN(C(=O)c4cc(-c5ccc(Cl)cc5)nc5ccccc45)CC3)c(F)cc2c1=O` ?
Result: FALSE

Q: Status in this test for `Nc1ccc(/C=N/Nc2ccnc3c(O)cccc23)c2cccnc12` ?
Result: FALSE

Q: Status in this test for `CCOC(=O)N/N=C/c1ccc(OC)c(OC)c1` ?
Result: FALSE

* * *

# Test system: UACC-62 melanoma
# Assay remarks: NCI-60 one-dose screen, 48 h (100 = growth as untreated, 0 = no growth, -100 = all killed)
# Condition notes: 10 µM
About 83,000 compounds went through this panel and 20% of them were active in at least one assay; those are over-represented in the sample as a whole.
Mark each entry true (1) if its growth sits below 80%, and false (0) for all others.

[
  {
    "Compound": "Cc1ccc(C(=O)C2C(=O)C3CCC2C3)cc1 (configuration not stated)",
    "Assigned label": "false (0)"
  }
]

Q: Criterion: growth strictly below 80%. Is it met by CC1OC2CC(=O)OC2C2=C1C(=O)c1c(O)c3c(c(O)c1C2=O)C1CC(O)C3(O)C(C)O1 (configuration not stated) ?
Result: true (1)

Q: Criterion: growth strictly below 80%. Is it met by COc1ccc(C2CC(c3cccs3)=NN2c2ccc(S(N)(=O)=O)cc2)cc1 (configuration not stated) ?
Result: true (1)

* * *

# Test system: RXF 393 renal
# Assay remarks: NCI-60 one-dose screen, 48 h (100 = growth as untreated, 0 = no growth, -100 = all killed)
# Condition notes: 10 µM
Compounds without any hit were thinned out: in the full panel of roughly 83,000, 20% have a hit.
Mark each entry True if its growth sits below 20%, and False for all others.

[
  {
    "Compound": "CN1C(C(=O)Nc2ccccn2)=C(O)c2sc(Cl)cc2S1(=O)=O",
    "Assigned label": "False"
  }
]

Q: Criterion: growth strictly below 20%. Is it met by `CCn1c(CSc2nc3ccccc3c(=O)n2CCc2ccccc2)n[nH]c1=S` ?
Result: False

Q: Criterion: growth strictly below 20%. Is it met by `CC(C)(C)OC(=O)N1CCc2c(sc3ncnc(N/N=C/c4cccc5ccccc45)c23)C1` ?
Result: True

Q: Criterion: growth strictly below 20%. Is it met by CC(C)[N+]1(C)C2CC[C@@H]1CC(OC(=O)C(CO)c1ccccc1)C2 (some centres not stated) ?
Result: False

Q: Criterion: growth strictly below 20%. Is it met by `O=C(NCCCNS(=O)(=O)c1ccc(Cl)cc1)Nc1ccc(-n2cc(-c3ccncc3)c(-c3ccc(Cl)c(O)c3)n2)cc1` ?
Result: True

Q: Criterion: growth strictly below 20%. Is it met by `CC[C@@H]1NC(=O)[C@H]([C@H](O)[C@H](C)C/C=C/c2ccc(CN3C(=O)CCCC3=O)cc2)N(C)C(=O)[C@H](C(C)C)N(C)C(=O)[C@H](CC(C)C)N(C)C(=O)[C@H](CC(C)C)N(C)C(=O)[C@@H](C)NC(=O)[C@H](C)NC(=O)[C@H](CC(C)C)N(C)C(=O)[C@H](C(C)C)NC(=O)[C@H](CC(C)C)N(C)C(=O)CN(C)C1=O` ?
Result: True

Q: Criterion: growth strictly below 20%. Is it met by `COc1cc(-c2nn(-c3cccc(NC(=O)NCCNC(=O)c4cccc(C(F)(F)F)c4)c3)cc2-c2ccncc2)ccc1Cl` ?
Result: True

* * *

# System: SK-MEL-28 melanoma
# Assay remarks: NCI-60 one-dose screen, 48 h
# Condition notes: 10 µM
Compounds without any hit were thinned out: in the full panel of roughly 83,000, 20% have a hit. The source made the active and inactive calls. The calls were made as follows: active = growth percent below 10; inactive = the rest.
Classes to choose from: y (active), n (inactive)

Consider the following illustrative entries.
[
  {
    "Compound": "CN(C)CCCOc1ccc(NC2=C(Cl)C(=O)C(Nc3ccc(OCCCN(C)C)cc3)=C(Cl)C2=O)cc1",
    "System under test": "SK-MEL-28 melanoma",
    "Assigned label": "n"
  },
  {
    "Compound": "Cc1ccc(C(SCC(N)C(=O)O)(c2ccc(C)cc2)c2ccc(C)cc2)cc1 (stereo unspecified)",
    "System under test": "SK-MEL-28 melanoma",
    "Assigned label": "n"
  },
  {
    "Compound": "Cc1cc(SCc2ccccc2)nc(N)n1",
    "System under test": "SK-MEL-28 melanoma",
    "Assigned label": "n"
  },
  {
    "Compound": "Nc1nccc(OCCO)n1",
    "System under test": "SK-MEL-28 melanoma",
    "Assigned label": "n"
  },
  {
    "Compound": "CN1CCN(CCCn2c(=O)c3sc4ncccc4c3n3nnc(-c4ccccc4)c23)CC1",
    "System under test": "SK-MEL-28 melanoma",
    "Assigned label": "y"
  },
  {
    "Compound": "CC1=NN(C(=O)c2nn(-c3ccc(Cl)cc3)cc2O)C(=O)C1",
    "System under test": "SK-MEL-28 melanoma",
    "Assigned label": "n"
  }
]

Q: Status in this test for COc1cc2ncnc(NC3CCC(O)CC3)c2cc1OC (stereo unspecified) ?
Result: n

Q: Status in this test for `COc1cc(-c2nn(-c3ccc(NC(=O)NCCNS(=O)(=O)c4ccc(F)cc4)cc3)cc2-c2ccncc2)ccc1Cl` ?
Result: n

Q: Status in this test for `COc1ccccc1N1CCCSC1=Nc1ccccc1` ?
Result: n

Q: Status in this test for `CC(=O)OC/C=C(/C)C[P+](c1ccccc1)(c1ccccc1)c1ccccc1` ?
Result: n

Q: Status in this test for `O=S(=O)(NCCCNc1nccc(-c2cn(-c3ccccc3)nc2-c2ccc(Cl)c(O)c2)n1)c1ccccc1` ?
Result: n

* * *

# Tested on: T-47D breast
# Assay remarks: NCI-60 one-dose screen, 48 h (100 = growth as untreated, 0 = no growth, -100 = all killed)
# Condition notes: 10 µM
About 83,000 compounds went through this panel and 20% of them were active in at least one assay; those are over-represented in the sample as a whole.
Readings of growth for the listed compounds
Number only, in %; omit the unit.

Examples from the recorded data:
[
  {
    "Mol": "Oc1cccc(-c2nc3sccn3c2-c2ccncn2)c1",
    "Quantity name": "growth",
    "Result": 108
  },
  {
    "Mol": "O=C(Nc1ccc(OCc2nnc(-c3ccc(Cl)cc3)o2)c(F)c1)Nc1ccc(Cl)c(C(F)(F)F)c1",
    "Quantity name": "growth",
    "Result": 4.57
  },
  {
    "Mol": "COc1ccccc1-n1c(-c2sc(NC(C)=O)nc2C)n[nH]c1=S",
    "Quantity name": "growth",
    "Result": 106
  },
  {
    "Mol": "CNC(=O)c1cn2c3c(c(N4CCN(C)CC4)c(F)cc3c1=O)OC[C@@H]2C",
    "Quantity name": "growth",
    "Result": 98.9
  },
  {
    "Mol": "CN(C)CCOc1cccc(NC2=C(Cl)C(=O)C(Nc3cccc(OCCN(C)C)c3)=C(Cl)C2=O)c1",
    "Quantity name": "growth",
    "Result": -42.1
  }
]

Now for a further compound.
In plain terms, `Cc1ccc(Cl)cc1NC(=O)CCl` has a documented growth of 77.6
